For each of the compounds below, state its half-life at 3 μM.
procedureText: Plasma stability assay in human plasma (LC-MS/MS)
Type: in vitro ADME
setupConditions: 37° C., 3 μM test compound, time points 0-240 min, read-out: Plasma t1/2 (converted)
Counter-ions that a name gives are not always drawn.

// each listed compound needs a value for half-life at 3 μM
1. C/C(=N\OC(=O)N(C)C[C@@H]1CCCN1)[C@H]1CC[C@H]2[C@@H]3CCC4C[C@H](O)CC[C@]4(C)[C@H]3CC[C@]12C (stereo partly drawn) [13c, trifluoroacetate]
2. CNCCN(C)C(=O)O/N=C(\C)[C@H]1CC[C@H]2[C@@H]3CCC4C[C@H](O)CC[C@]4(C)[C@H]3CC[C@]12C (stereo partly drawn) [12c, trifluoroacetate]
3. C/C(=N\OC(=O)N(C)C[C@@H]1CCCN1)[C@H]1CC[C@H]2[C@@H]3CC=C4C[C@@H](O)CC[C@]4(C)[C@H]3CC[C@]12C [13b, trifluoroacetate]
4. CNCCN(C)C(=O)O/N=C(\C)[C@H]1CC[C@H]2[C@@H]3CC=C4C[C@@H](O)CC[C@]4(C)[C@H]3CC[C@]12C [12b, trifluoroacetate]
5. CNCCN(C)C(=O)O/N=C(\C)[C@H]1CC[C@H]2[C@@H]3CCC4C[C@@H](O)CC[C@]4(C)[C@H]3CC[C@]12C (stereo partly drawn) [12a, trifluoroacetate]

Completion:
< 6 min
83.4 min
< 6 min
73.8 min
87 min

Prompt: Reported half-life at 3 μM for C/C(=N\OC(=O)N(C)C[C@@H]1CCCN1)[C@H]1CC[C@H]2[C@@H]3CCC4C[C@@H](O)CC[C@]4(C)[C@H]3CC[C@]12C (stereo partly drawn) [13a, trifluoroacetate] : what is it?
Completion: < 6 min
